Overview of recorded melting point for various molecules

Worked cases, melting point given:
In [3]: df
Out[3]:
                                   molecule   test_readout         result
0            OCCc1ccc(O)c(-n2nc3ccccc3n2)c1  melting point  120 to 123 °C
1                Cn1c(C(=O)O)c(Br)c2ccccc21  melting point  204 to 206 °C
2                   CN1C(=O)c2cccc(N)c2C1=O  melting point  199 to 201 °C
3               N#CCc1nc2cc(C(F)(F)F)ccc2s1  melting point    95 to 97 °C
4  COc1cccc(C2C(C(=O)O)CC(=O)N2C2CC2)c1 (centres undefined)  melting point  179 to 181 °C
5       CC(C)(C)c1ccc(S(=O)(=O)N2CCNCC2)cc1  melting point  126 to 128 °C

Entry CNS(=O)(=O)c1ccc(C(=O)O)cc1 has what melting point? 246 to 250 °C

Entry O=C(O)CCCn1cccn1 has what melting point? 74 to 76 °C

Entry COc1ccc(C2=CCNCC2)cc1 has what melting point? 73 to 75 °C

Entry Nc1nnc(CCCc2cccs2)o1 has what melting point? 149 to 151 °C

Entry Cn1cnn(CC(=O)O)c1=O has what melting point? 172 to 174 °C

Entry O=Cc1cccc2nccn12 has what melting point? 123 to 125 °C

Entry O=C(NC1CC1)c1cccc(O)c1 has what melting point? 157 to 159 °C

----------
test readout: melting point

Worked cases, melting point given:
                                   compound         result
0                             Cn1c(S)nnc1CO  189 to 191 °C
1                     COC(=O)c1ccc(CBr)cc1F    74 to 76 °C
2  CCC(C#N)NC(=O)c1ccccc1 (configuration not stated)  104 to 106 °C

Entry O=C(O)c1cnc2scc(-c3ccccc3)n2c1=O has what melting point? 244 to 246 °C

Entry Nc1nc2cc(Br)ccc2[nH]1 has what melting point? 148 to 150 °C

Entry C#CCS(=O)(=O)CCNC(=O)OC(C)(C)C has what melting point? 126 to 128 °C

Entry Nc1ccc2ccn(Cc3ccccc3)c2c1 has what melting point? 119 to 121 °C

----------
Overview of recorded melting point for various compounds

>>> df
                                   compound         result
0                 COCCc1ccc(S(=O)(=O)Cl)cc1    40 to 42 °C
1                O=C1CC2CCCC(C1)N2Cc1ccccc1    66 to 68 °C
2               NC(=O)c1ccc(-c2nn[nH]n2)cc1  258 to 260 °C
3                N#Cc1ccc(-c2nnc(CCl)o2)cc1  143 to 145 °C
4                       CNCc1ccc(C(=O)NC)o1    65 to 67 °C
5  Nc1ccc(S(=O)(=O)NC2CN3CCC2CC3)cc1 (configuration not stated)  168 to 170 °C

Entry COc1ccc(C)cc1-c1nnc(S)n1N has what melting point? 247 to 249 °C
